Assay summary: Activation of bovine Hsp70 ATPase activity
Set-up: species or system Bos taurus
Endpoint label: EC50 (µM)
Only the number, expressed in µM, is required.

Worked cases, answers included:
Query: Report measured EC50; entry is CCOC(=O)C1=C(C)N(CCCC(=O)N[C@H](CC(=O)N[C@H](CC(=O)NCCC(=O)O)Cc2cccc3ccccc23)C(C)C)C(=O)NC1c1ccc(Br)cc1 (stereo not given in full)
Result: 255

Query: Report measured EC50; entry is CCOC(=O)C1=C(C)N(CCCC(=O)OC)C(=O)NC1c1ccc(Br)cc1 (stereo not given)
Result: 213

Query: Report measured EC50; entry is CCOC(=O)C1=C(C)N(CCCC(=O)N[C@@H](CCCCN)CC(=O)N[C@H](CC(=O)NCCC(=O)O)[C@@H](C)CC)C(=O)NC1c1ccc(Br)cc1 (stereo not given in full)
Result: 352

Query: Report measured EC50; entry is CCOC(=O)C1=C(C)N(CCCC(=O)N[C@H](CC(=O)NCCC(=O)O)Cc2cccc3ccccc23)C(=O)NC1c1ccc(Br)cc1 (stereo not given in full)
Result: 179

Turning now to a further record.
Query: Report measured EC50; entry is CCOC(=O)C1=C(C)N(CCCC(=O)N[C@@H](CCc2ccccc2)CC(=O)NCCC(=O)O)C(=O)NC1c1ccc(Br)cc1 (stereo not given in full)
Result: 190
